test-target: GSK3b (GST-full length GSK3b) (Homo sapiens (Human), UniProt P49841)
Sequence (P49841 whole entry): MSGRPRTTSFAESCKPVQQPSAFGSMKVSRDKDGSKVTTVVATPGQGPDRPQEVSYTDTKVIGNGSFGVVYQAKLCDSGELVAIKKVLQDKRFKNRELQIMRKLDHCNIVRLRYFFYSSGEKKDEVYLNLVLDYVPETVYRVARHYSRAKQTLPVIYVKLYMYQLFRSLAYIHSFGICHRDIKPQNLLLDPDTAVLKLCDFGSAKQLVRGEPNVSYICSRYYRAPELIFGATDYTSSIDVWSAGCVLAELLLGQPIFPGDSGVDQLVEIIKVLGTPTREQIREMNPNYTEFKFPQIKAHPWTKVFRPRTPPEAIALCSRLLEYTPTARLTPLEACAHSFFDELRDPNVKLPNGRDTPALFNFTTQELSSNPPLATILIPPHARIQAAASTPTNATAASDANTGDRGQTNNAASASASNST
assay-details: GSK3b TR-FRET kinase assay
Type: biochemical
condition-notes: 1 nM GSK3b, 2 μM ATP, 30 minute preincubation, Table 16; read-out: GSK3-B TR-FRET BIOCHEMICAL (TR-FRET); IC50
Form field: IC50 (one value per entry).
endpoint: IC50

| compound | result |
| --- | --- |
| CC(C)N1CC2(C1)C1=C(CC(C)(C)CC1=O)Nc1n[nH]cc12 [Compound 932650] | > 5000 nM |
| CCC1(c2cccc(C(C)C)c2)C2=C(CC(C)(C)NC2=O)Nc2n[nH]c(C(F)(F)F)c21 (stereo not drawn) [Compound 949747] | ≤ 100 nM |
| CCC1(c2cccc(-c3ccnn3C)c2)C2=C(CC(C)(C)CC2=O)Nc2n[nH]cc21 (stereo not drawn) [Compound 911992] | ≤ 100 nM |
| CCC1(c2cccc(N(C)C(=O)CN3CCCC3)c2)C2=C(CC(C)(C)CC2=O)Nc2n[nH]cc21 (stereo not drawn) [Compound 909202] | 1000 to 5000 nM |
| CCC1(c2cccc(C(F)(F)F)c2)C2=C(CCN(c3ncn(C)c3C)C2=O)Nc2n[nH]cc21 (stereo not drawn) [Compound 951598] | > 5000 nM |
| CC[C@]1(c2cccc(N3CCCC[C@H]3C)c2)C2=C(CC(C)(C)CC2=O)Nc2n[nH]cc21 [Compound 917210] | > 5000 nM |
| CC[C@@]1(c2cccc(-c3c(F)cncc3OC)c2)C2=C(CC(C)(C)C2=O)Nc2n[nH]cc21 [Compound 952564] | ≤ 100 nM |
| CC[C@]1(c2cccc(-c3c(C#N)cnn3C)c2)C2=C(CC(C)(C)NC2=O)Nc2n[nH]c(C)c21 [Compound 952410] | ≤ 100 nM |
| CC[C@]1(c2cccc(-c3cnn4cccnc34)c2)C2=C(CC(C)(C)NC2=O)Nc2n[nH]cc21 [Compound 950830] | 100 to 1000 nM |
| CC[C@@]1(c2cccc(C(F)(F)F)c2)C2=C(CCC2=O)Nc2n[nH]cc21 [Compound 951565] | 100 to 1000 nM |
| CCC1(c2cccc(N(c3cccnc3)C(C)C)c2)C2=C(CC(C)(C)CC2=O)Nc2n[nH]cc21 (stereo not drawn) [Compound 885344] | ≤ 100 nM |
| CC[C@]1(c2cccc(-c3cc(C)nc4c3cnn4C)c2)C2=C(CC(C)(C)NC2=O)Nc2n[nH]cc21 [Compound 952563] | > 5000 nM |
| CC[C@]1(c2cccc(Oc3ncccn3)c2)C2=C(CC(C)(C)NC2=O)Nc2n[nH]cc21 [Compound 949330] | 100 to 1000 nM |
| Cc1cccc2c1CC[C@@]21C2=C(CC(C)(C)CC2=O)Nc2n[nH]cc21 [Compound 913137] | > 5000 nM |
| CC1(C)CC(=O)C2=C(C1)Nc1n[nH]cc1[C@]21CCOC(C)(C)C1 [Compound 924298] | 1000 to 5000 nM |
